biological target: T1, recombinant YFV E protein (soluble E, sE; YFV Asibi strain) (Yellow fever virus, Asibi strain, UniProt Q6DV88 286-678); assay: BLI monovalent (IgG on tip)
T1 construct: also called YFV E antigen; YFV E monomer
T1 sequence (Q6DV88 286-678): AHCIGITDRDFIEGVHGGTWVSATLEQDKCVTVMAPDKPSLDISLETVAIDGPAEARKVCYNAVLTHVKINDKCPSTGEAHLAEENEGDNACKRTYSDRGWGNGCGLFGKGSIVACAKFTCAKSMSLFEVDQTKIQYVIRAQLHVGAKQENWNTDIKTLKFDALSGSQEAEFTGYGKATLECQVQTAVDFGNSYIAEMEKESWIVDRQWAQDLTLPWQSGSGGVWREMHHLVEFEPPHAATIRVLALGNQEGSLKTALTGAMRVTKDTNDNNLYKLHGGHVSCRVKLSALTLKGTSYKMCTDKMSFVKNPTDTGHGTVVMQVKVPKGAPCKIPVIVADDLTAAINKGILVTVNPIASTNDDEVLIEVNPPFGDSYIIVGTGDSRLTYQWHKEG
quantity: Kd (nM)

binder	quantity	unit of measurement	result number
ADI-50203 (antibody, V domains shown, full-length IgG; also called Antibody Number 103) VH: EVQLVESGGGVVQPGRSLRLSCVPSGFTFSSYAMHWVRQAPGKGLEWVAMMSYDGGDKNYADSVKGRFTISRDNSKNTLYLQMRSLRAEDTAIYYCARAYDSRGYYYIEHWGQGTLVTVSS VL: GIQLTQSPSTLSASVGDRVTITCRASQSVSDWLAWYQQKPGRAPNLLIYRASSLQSGVPSRFSGSGSGTEFTLTINSLQPDDFATYYCQQYKTYWTFGQGTKVEIK	Kd	nM	22.4
ADI-45128 (antibody, V domains shown, full-length IgG; also called Antibody Number 79) VH: QVQLQESGPGLVRPSQTLSLTCTVSGGAISSGDYYWSWVRQPPGKGLEWIGYIHYSGTTYNNPSLKSRVTIAVDTSKNQFSLKLSSVTAADTAVYFCGRDSDKNYFDYWGQGTLVTVSS VL: QSVLTQPPSVSAAPGQKVTISCSGSSSNIGNNDVSWYQQLPGRAPKLLIYDNNKRPSGIPDRFSGSKSGTSATLGITGLQTGDEADYYCGAWDSSLSAHVVFGGGTKVTVL	Kd	nM	3.54
ADI-42200 (antibody, V domains shown, full-length IgG; also called Antibody Number 102) VH: EVQLVESGGGVVQPGRSLRLSCAASGLTFSTYTLHWVRQAPGKGLEWVAVISSDGGNKYYADSVKGRFTISRDSSKNTLYLQMNSLRTEDTAVYYCAGGSPDYWGQGALVTVSS VL: EIVMTQSPATLSLSPGERGTLSCRTSQSVSSFLAWYQQKPGQAPRLLMYDASNRATGIPARFSGSGSGTDFTLTISSLEPEDFAVYYCQQRSNWPYTFGQGTKVDIK	Kd	nM	5.63
ADI-46001 (antibody, V domains shown, full-length IgG; also called Antibody Number 52) VH: EVQLVESGGGLVKPGGSLRLSCAASGFTFSDYYMSWIRQAPGKGLEWVSYISSSGNTIYYADSVKGRFTISRDNAKNSLYLQLNSLRAGDTAVYYCARDSNYFYGLDVWGQGTTVTVSS VL: QPVLTQPPSVSVAPGQTARITCGGNNIGSKSVHWYQQKPGQAPMLVIYSNSDRPSGIPERFSGSNSGITATLTISRVEAGDEADYHCQVWDTSIDHHWVFGGGTKLTVL	Kd	nM	6.17
ADI-45136 (antibody, V domains shown, full-length IgG; also called Antibody Number 80) VH: EVQLVESGGGVVRPGRSLRLSCAASGFTFSSYGMHWVRQAPGKGLEWVAVIRFDGSNTVYADSVKGRFTISRDNSKNTLYLQMNSLRAEDTAVYYCAKTYDSNAYYYLDYWGQGTLVTVSS VL: DIVMTQTPSTLSASVGDRVTVTCRASQSISDWLAWYQQKAGKAPKLLIYRASSLESGVPPRFSGSGSGTEFTLTISSLRPDDFATYYCQQYNRYPYTFGQGTKVDIK	Kd	nM	16.8
